- STUDY TARGET: T1, CD134 protein (His-tagged, Sino Biological Inc. 10481-H08H) (human, UniProt P43489 29-216)
- T1 construct: bought protein coated on ELISA plates; also called OX40; TNFRSF4; not shown: His tag
- T1 sequence (looked up): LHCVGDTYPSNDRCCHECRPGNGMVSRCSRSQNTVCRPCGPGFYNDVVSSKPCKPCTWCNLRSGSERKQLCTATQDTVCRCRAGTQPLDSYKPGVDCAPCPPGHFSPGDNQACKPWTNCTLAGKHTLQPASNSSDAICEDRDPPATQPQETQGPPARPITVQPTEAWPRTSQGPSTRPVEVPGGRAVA
- PROCEDURE TEXT: ELISA, coated His-tagged CD134; further: test concentration or dose not given here
Measured ELISA [abs. corr.], listed per entry for reference.

BINDER	ELISA [abs. corr.]
P018.S.12.A.B03 (antibody, V domains shown, V regions on human Ig constant parts; also called AB134_58) VH: QSLEESGGRLVTPGTPLTLICTVSGIDLSSGAMGWVRQAPGKGLEYIGYIYTGSGTTSYASWVNGRFTISMTSTTVDLKITSPTTEDTATYFCARDAASSYWGHFTLWGQGTLVTVSS VL: DIVMTQTPASVEAAVGGTVTIKCQASENIYSSLAWYQQKPGQPPKLLIYRTSTLASGVPSRFKGSGSGTQFTLTISDLESDDAATYYCQSYYHNSGGGYDYGFGGGTEVVAK	1.18 abs. corr.
P018.S.12.A.C01 (antibody, V domains shown, V regions on human Ig constant parts; also called AB134_61) VH: QEQLKESGGGLVTPGGTLTLTCTASGFTFSSHAMGWVRQAPGKGLEWIGKIYDDGTTFYANWAKGRFTISRTSTTVDLKMTSLTTEDTATYFCLRGYNSGFNFWGQGTLVTVSS VL: AQVLTQTPASVSAAVGGTVTISCQSSESVYNNNFLAWYQQKPGQPPKLLIYLASTLASGVPSRFSGSGSGTEFTLTISDLDSDDAATYYCAGGYDDNVYGFGGGTEVVVK	2.49 abs. corr.
